We begin with a simple list: items and their reported log10 of Kd.
SYSTEM_TESTED: T1, biotinylated CD3 epsilon:delta heterodimer protein (Amsbio AMS.CDD-H52WO) (Homo sapiens (Human), UniProt P07766 23-126; P04234 22-105)
T1 construct: also called CD3 heterodimer
ASSAY_REMARKS: BLI (Octet), CD3 on SA sensor, Fab analyte;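 also: fab analyte at several concentrations up to 300 nM, association 100 s then 300 s dissociation in buffer, biosensors blocked with biocytin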
OBSERVED_PROPERTY: log10 of Kd (log10 of the value in µM)

1. huSP34.34.17 Fab-HF (Fab, V domains shown, also called HC34+LC17) VH: EVQLVESGGGLVQPGGSLRLSCAASGFTFNTYAMNWVRQAPGKGLEWVGRIRSKYNNYATYYAASVKGRFTISRDDSKNSLYLQMNSLKTEDTAMYYCVRHGNFGHSYVSWFAYWGQGTLVTVSS VL: QAVVTQPPSLTVSPGGTVTLTCGSSTGAVTTGHYANWVQQKPGQAPRGLIGGTNKRAPWTPARFSGSLSGGKAALTISGAQPEDEAEYYCALWYSARWVFGGGTKLTVL = -1.52
2. huSP34.35.6 Fab-HF (Fab, V domains shown, also called HC35+LC6) VH: EVQLVESGGGLVQPGGSLRLSCAASGFTFNDYAMNWVRQAPGKGLEWVGRTRSKYNNYATYYAASVKGRFTISRDDSKNSLYLQMNSLKTEDTAMYYCVRHGNFGHSYVSWFAYWGQGTLVTVSS VL: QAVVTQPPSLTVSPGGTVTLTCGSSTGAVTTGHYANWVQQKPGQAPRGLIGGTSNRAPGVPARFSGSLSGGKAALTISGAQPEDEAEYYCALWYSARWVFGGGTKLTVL = -0.75
3. huSP34.34.18 Fab-H (Fab, V domains shown, also called HC34+LC18) VH: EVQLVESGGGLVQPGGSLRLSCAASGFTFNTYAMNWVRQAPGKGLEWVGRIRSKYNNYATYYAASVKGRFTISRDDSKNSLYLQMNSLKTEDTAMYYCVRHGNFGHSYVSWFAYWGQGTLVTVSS VL: QAVVTQPPSLTVSPGGTVTLTCGSSTGAVTTGHYANWVQQKPGQAPRGLIGGTSNRAPWTPARFSGSLSGGKAALTISGAQPEDEAEYYCALWYSARWVFGGGTKLTVL = -1.06
4. huSP34.34.14 Fab-HF (Fab, V domains shown, also called HC34+LC14) VH: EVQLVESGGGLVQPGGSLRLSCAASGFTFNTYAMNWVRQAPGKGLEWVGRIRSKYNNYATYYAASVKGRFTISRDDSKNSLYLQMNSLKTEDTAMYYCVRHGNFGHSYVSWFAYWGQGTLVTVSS VL: QAVVTQPPSLTVSPGGTVTLTCGSSTGAVTTGHYANWVQQKPGQAPRGLIGGTSNRAPGVPARFSGSLSGGKAALTISGAQPEDEAEYYCALWYSNRWVFGGGTKLTVL = -2.41
5. huSP34.3.13 Fab-HF (Fab, V domains shown, also called HC3+LC13) VH: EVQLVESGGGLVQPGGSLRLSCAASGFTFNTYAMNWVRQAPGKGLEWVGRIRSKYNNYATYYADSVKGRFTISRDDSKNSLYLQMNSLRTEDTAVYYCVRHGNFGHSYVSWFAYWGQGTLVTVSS VL: QAVVTQEPSLTVSPGGTVTLTCGSSTGAVTTGHYANWVQQKPGQAPRGLIGGTSNRAPGVPARFSGSLLGGKAALTISGAQPEDEAEYYCALWYSNRWVFGGGTKLTVL = -2.21
6. huSP34.34.16 Fab-HF (Fab, V domains shown, also called HC34+LC16) VH: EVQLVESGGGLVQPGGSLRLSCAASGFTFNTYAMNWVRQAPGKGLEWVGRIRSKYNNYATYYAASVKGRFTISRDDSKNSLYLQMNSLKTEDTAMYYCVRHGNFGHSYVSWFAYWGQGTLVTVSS VL: QAVVTQPPSLTVSPGGTVTLTCGSSTGAVTTGHYANWVQQKPGQAPRGLIGGTSNRAPWTPARFSGSLSGGKAALTISGAQPEDEAEYYCALWYSNRWVFGGGTKLTVL = -1.54
7. huSP34.35.10 Fab-HF (Fab, V domains shown, also called HC35+LC10) VH: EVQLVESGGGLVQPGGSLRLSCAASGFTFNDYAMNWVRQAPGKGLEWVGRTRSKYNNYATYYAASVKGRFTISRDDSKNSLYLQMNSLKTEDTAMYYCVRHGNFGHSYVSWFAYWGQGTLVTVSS VL: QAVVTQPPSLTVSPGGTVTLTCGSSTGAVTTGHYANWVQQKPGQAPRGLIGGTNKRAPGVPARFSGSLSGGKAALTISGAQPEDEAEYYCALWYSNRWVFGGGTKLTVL = -0.65
8. huSP34.3.10 Fab-HF (Fab, V domains shown, also called HC3+LC10) VH: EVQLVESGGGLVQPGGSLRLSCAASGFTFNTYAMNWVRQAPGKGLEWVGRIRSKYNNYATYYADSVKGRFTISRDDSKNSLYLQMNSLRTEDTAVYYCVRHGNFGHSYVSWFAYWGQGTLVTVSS VL: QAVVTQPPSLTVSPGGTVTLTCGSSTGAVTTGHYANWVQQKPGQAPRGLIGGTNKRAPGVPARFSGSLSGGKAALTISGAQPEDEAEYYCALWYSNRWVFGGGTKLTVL = -2.64
9. huSP34.37.10 Fab-HF (Fab, V domains shown, also called HC37+LC10) VH: EVQLVESGGGLVQPGGSLRLSCAASGFTFNTYAMNWVRQAPGKGLEWVGRTRSKYNNYATYYAASVKGRFTISRDDSKNSLYLQMNSLKTEDTAMYYCVRHGNFGHSYVSWFAYWGQGTLVTVSS VL: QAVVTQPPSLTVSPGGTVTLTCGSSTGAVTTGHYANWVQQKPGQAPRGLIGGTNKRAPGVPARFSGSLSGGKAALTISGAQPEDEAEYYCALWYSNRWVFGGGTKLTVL = -1.79
10. huSP34.3.19 Fab-HF (Fab, V domains shown, also called HC3+LC19) VH: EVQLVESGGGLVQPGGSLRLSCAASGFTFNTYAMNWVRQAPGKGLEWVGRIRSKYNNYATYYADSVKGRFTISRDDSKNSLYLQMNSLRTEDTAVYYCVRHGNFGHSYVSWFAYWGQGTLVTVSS VL: QAVVTQEPSLTVSPGGTVTLTCGSSTGAVTTGHYANWVQQKPGQAPRGLIGGTNKRAPGVPARFSGSLLGGKAALTISGAQPEDEAEYYCALWYSARWVFGGGTKLTVL = -2.00
